B1: VH:VL chains; a variant is named by its letters at X, in order (parent)
chain 1: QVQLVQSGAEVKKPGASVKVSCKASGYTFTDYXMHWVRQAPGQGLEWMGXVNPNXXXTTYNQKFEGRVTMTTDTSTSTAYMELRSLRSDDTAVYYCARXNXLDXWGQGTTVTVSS
chain 2: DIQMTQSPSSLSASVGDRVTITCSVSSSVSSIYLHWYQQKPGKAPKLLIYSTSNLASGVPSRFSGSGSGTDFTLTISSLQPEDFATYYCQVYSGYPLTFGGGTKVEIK

variants of: B1; assay: yeast display scFab, FACS + sequencing
PARAMETER MEASURED: non-specific binding call

Solved cases below.
[
  {
    "VARIANT LABEL": "VGGGADGA",
    "non-specific binding call": "no binding"
  },
  {
    "VARIANT LABEL": "DRAGDAAA",
    "non-specific binding call": "no binding"
  },
  {
    "VARIANT LABEL": "VGGTSSGA",
    "non-specific binding call": "no binding"
  },
  {
    "VARIANT LABEL": "FKGRGSLY",
    "non-specific binding call": "binds"
  }
]

The record that follows has no non-specific binding call shown yet.
# get_value(readout='non-specific binding call', item= DEGGTSVD )
no binding

Data origin, for the record: the emibetuzumab library of Makowski et al. (2022)
